System: bovine cardiac myofibrils
Assay: Myofibril assay: PK/LDH-coupled steady-state ATPase activity of skinned bovine cardiac myofibrils
Format: biochemical
Conditions: Ca2+ activating to 75% of maximal rate
endpoint: CDMF75 IC15 (µM)

Completed entries (count: 4):
molecule: CCC(=O)N1CC2(C1)C(=O)N(c1ccc(C#N)cc1)CC(=O)N2Cc1ccc(C(F)(F)F)cc1
observed.result: 15.9
//
molecule: Cc1cc(Cl)cnc1N1CC(=O)N(Cc2ccc(Cl)cc2)C2(CN(c3ccccn3)C2)C1=O
observed.result: 0.3
//
molecule: Cc1cnc(N2CC(=O)N(Cc3ccc(C(F)(F)F)cc3)C(C3COC3)C2=O)c(F)c1 (single isomer, unassigned) [Compound 691A]
observed.result: 12.06
//
molecule: COc1cc(N2CCC3(C2)C(=O)N(C(C)C)CC(=O)N3Cc2ccc(Cl)cc2)ccn1 (centres unmarked)
observed.result: 1.9

I: O=C1[C@H](C2CC2)N(Cc2ccc(F)cc2)C(=O)CN1c1ncc(Cl)cc1F
II: CNC(=O)N1CC2(C1)C(=O)N(c1ccc(C(F)F)cc1)CC(=O)N2Cc1ccc(C(F)(F)F)cc1
Ask | Which of the two gives a bigger number for CDMF75 IC15: I or II ? // output: label of the selected item
Reply | II
(II: 5.5 µM, I: 1.3 µM)

P: CNc1ccc(N2CC3(C2)C(=O)N(c2ccc(C#N)cc2F)CC(=O)N3Cc2ccc(C(F)(F)F)cc2)cc1C(=O)OC
Q: CSCCC1C(=O)N(c2ncc(Cl)cc2F)CC(=O)N1Cc1ccc(C(F)(F)F)cc1 (centres unmarked)
R: N#Cc1ccc(N2CC(=O)N(Cc3ccc(C(F)(F)F)cc3)C3(COC3)C2=O)c(F)c1
Ask | Task for the reader: rank each entry by its CDMF75 IC15, from the minimum upward. Form entry: labels listed in requested order.
Reply | P, R, Q

A: CNc1ccccc1N1CC2(C1)C(=O)N(c1ccc(C#N)cc1F)CC(=O)N2Cc1ccc(C(F)(F)F)cc1
B: COc1cnc(N2CC(=O)N(Cc3ccc(Cl)c(F)c3)C(C3COC3)C2=O)c(F)c1 (centres unmarked)
C: CC(C)N1CC(=O)N(Cc2ccc(Cl)cc2)C2(CCN(C(=O)Nc3ccccc3)C2)C1=O (centres unmarked)
Ask | Order each entry by recorded CDMF75 IC15, climbing from the minimum. List the labels according to the requested ordering.
Reply | A, B, C

I: CNC(=O)N1CC2(C1)C(=O)N(c1ncc(Cl)cc1F)CC(=O)N2[C@@H](C)c1ccc(C(F)(F)F)cc1
II: CC(=O)N1CC2(C1)C(=O)N(c1ccc(C#N)cc1F)CC(=O)N2Cc1ccc(F)cc1
III: CC(=O)NCC1(C)C(=O)N(c2ncc(Cl)cc2F)CC(=O)N1Cc1ccc(C(F)(F)F)cc1 (racemic) [Compound 630]
Ask | Parameters: sort_field (CDMF75 IC15), sort_dir (desc). Rank them, then answer with their labels in that order.
Reply | III, II, I
(III: 18.7 µM, II: 8.5 µM, I: 1.3 µM)

---

Tested on: bovine cardiac myofibrils
Experiment: Myofibril assay: PK/LDH-coupled steady-state ATPase activity of skinned bovine cardiac myofibrils
Type: biochemical
Settings: Ca2+ activating to 75% of maximal rate
endpoint: CDMF75 IC15 (µM)

compound: CNC(=O)N1CC2(C1)C(=O)N(c1ccc(OC(F)(F)F)cc1)CC(=O)N2Cc1ccc(C(F)(F)F)cc1
unit: µM
CDMF75 IC15: 7.1

compound: CC(C)N1CC(=O)N(Cc2ccc(Cl)cc2)C2(CN(c3cnnc(Cl)c3)C2)C1=O
unit: µM
CDMF75 IC15: 22.9

compound: CC(=O)N1CC2(C1)CC1(C2)C(=O)N(c2ncc(Cl)cc2F)CC(=O)N1Cc1ccc(Cl)cc1
unit: µM
CDMF75 IC15: 0.53

compound: CC(C)(O)C1CC2(C1)C(=O)N(c1ccc(C#N)cc1F)CC(=O)N2Cc1ccc(C(F)(F)F)cc1 (stereo not drawn) [Compound 479B]
unit: µM
CDMF75 IC15: 2.8

compound: CC1(C(F)F)C(=O)N(c2ncc(Cl)cc2F)CC(=O)N1Cc1ccc(Cl)cc1 (stereo not drawn)
unit: µM
CDMF75 IC15: 1.3

compound: CC(=O)N1CC2(C1)C(=O)N(C1CCC(C(F)F)CC1)CC(=O)N2Cc1ccc(C(F)(F)F)cc1 (stereo not drawn)
unit: µM
CDMF75 IC15: 11.5

compound: O=C1C(C2COC2)N(Cc2ccc(C(F)F)cc2)C(=O)CN1c1ncc(Cl)cc1F (stereo not drawn)
unit: µM
CDMF75 IC15: 2.5

compound: CC(=O)N1CC2(C1)C(=O)N(c1ncc(Cl)cc1F)CC(=O)N2[C@@H](C)c1ccc(C(F)(F)F)cc1
unit: µM
CDMF75 IC15: 2.2

P: CNC(=O)N1CC2(C1)C(=O)N(c1ccc(C(=O)OC)cc1)CC(=O)N2Cc1ccc(C(F)(F)F)cc1
Q: CNC(=O)N1CC2(C1)C(=O)N(c1ccc(F)cc1)CC(=O)N2Cc1ccc(C(F)(F)F)cc1
Ask | Would you let me know which has the greater CDMF75 IC15 value, P or Q ? Answer = label.
Reply | Q
(Q: 8.9 µM, P: 2.3 µM)

P: Cc1cc(Cl)cnc1N1CC(=O)N(Cc2ccc(C(F)(F)F)cc2)C(C2COC2)C1=O (stereo not drawn)
Q: CC1(C(F)F)C(=O)N(c2ncc(Cl)cc2F)CC(=O)N1Cc1ccc(C(F)(F)F)cc1 (stereo not drawn)
Ask | Select one. Lower CDMF75 IC15: P or Q Mark your answer with the label of the selected entry.
Reply | Q
(Q: 1.4 µM, P: 5.8 µM)

a: Cc1ccc(N2CC3(C2)C(=O)N(C(C)C)CC(=O)N3Cc2ccc(Cl)cc2)cn1
b: COC(=O)C12CC(C3C(=O)N(c4ncc(Cl)cc4F)CC(=O)N3Cc3ccc(F)cc3)(C1)C2 (stereo not drawn)
c: O=C1C(C2CC(O)C2)N(Cc2ccc(C(F)(F)F)cc2)C(=O)CN1c1ncc(Cl)cc1F (single isomer, unassigned) [Compound 740B]
d: CC1(C)C(=O)N(c2ccc(Cl)cc2F)CC(=O)N1Cc1ccc(C(F)(F)F)cc1
Ask | Put the items in sequence by CDMF75 IC15, from largest down. Output spec: labels arranged per the requested ranking.
Reply | a, b, d, c

---

Test system: bovine cardiac myofibrils
Experiment: Myofibril assay: PK/LDH-coupled steady-state ATPase activity of skinned bovine cardiac myofibrils
Format: biochemical
Conditions: Ca2+ activating to 75% of maximal rate
endpoint: CDMF75 IC15 (nM)

compound: Cc1cc(Cl)cnc1N1CC(=O)N(Cc2ccc(Cl)c(F)c2)C(C2COC2)C1=O (stereo not shown)
endpoint: CDMF75 IC15
observed.result: 3400

compound: N#Cc1ccc(N2CC(=O)N(Cc3ccc(C(F)(F)F)cc3)[C@]3(C[C@H](CO)C3)C2=O)c(F)c1 [Compound 475B]
endpoint: CDMF75 IC15
observed.result: 600

compound: CNC(=O)N1CCC2(C1)C(=O)N(c1ccc([N+](=O)[O-])cc1)CC(=O)N2Cc1ccc(Cl)cc1 (stereo not shown)
endpoint: CDMF75 IC15
observed.result: 900

compound: O=C1C([C@H]2C[C@@H](O)C2)N(Cc2ccc(C(F)(F)F)cc2)C(=O)CN1c1ncc(Cl)cc1F (stereo partly shown)
endpoint: CDMF75 IC15
observed.result: 2200

compound: O=C1C(CO)N(Cc2ccc(C(F)(F)F)cc2)C(=O)CN1c1ncc(Cl)cc1F (single isomer, unassigned) [Compound 857A]
endpoint: CDMF75 IC15
observed.result: 5300

A: O=C1C(C2COC2)N(Cc2ccc(Cl)c(F)c2)C(=O)CN1c1ncc(Cl)cc1F (stereo not shown)
B: CC(=O)N1CC2(C1)C(=O)N(c1ncc(Cl)cc1F)CC(=O)N2Cc1ccc(Cl)cc1
Ask | Compare CDMF75 IC15: is it lower for A or for B ? Returns: label corresponding to the selected item.
Reply | A

---

System: bovine cardiac myofibrils
Experiment: Myofibril assay: PK/LDH-coupled steady-state ATPase activity of skinned bovine cardiac myofibrils
Assay type: biochemical
Details: Ca2+ activating to 75% of maximal rate
endpoint: CDMF75 IC15 (µM)

A selection of reference data follows.
molecule: N#Cc1ccc(N2CC(=O)N(Cc3ccc(C(F)(F)F)cc3)C3(CN(CC(F)F)C3)C2=O)cc1F [Compound 193]
unit: µM
CDMF75 IC15: 1.7
--
molecule: CC(C)N1CC(=O)N(Cc2ccc(Cl)cc2)C2(CN(c3ccccn3)C2)C1=O [Compound 6]
unit: µM
CDMF75 IC15: 0.9
--
molecule: Cc1ccc(CN2C(=O)CN(c3ncc(Cl)cc3F)C(=O)C2C23CC(O)(C2)C3)cc1 (stereo not drawn) [Compound 852]
unit: µM
CDMF75 IC15: 6.5
--
molecule: Cc1ccc(CN2C(=O)CN(c3ncc(Cl)cc3F)C(=O)C23COC3)cc1 [Compound 757]
unit: µM
CDMF75 IC15: 7.2
--
molecule: CC(C)N1CC(=O)N(Cc2ccc(F)cc2)C(c2ccc(Cl)cc2)C1=O (stereo not drawn) [Compound 303]
unit: µM
CDMF75 IC15: 3.7
--
molecule: CC(=O)N1CC2(C1)C(=O)N(c1ccc(-c3ncon3)cc1F)CC(=O)N2Cc1ccc(C(F)(F)F)cc1 [Compound 701]
unit: µM
CDMF75 IC15: 3.9
--
molecule: C[C@@H](c1ccc(Cl)cc1)N1C(=O)CN(c2ncc(Cl)cc2F)C(=O)C12COC2 [Compound 558]
unit: µM
CDMF75 IC15: 7.04
--
molecule: C#Cc1ccc(N2CC(=O)N(Cc3ccc(C4(C(F)(F)F)N=N4)cc3)C3(CN(C(=O)NC)C3)C2=O)c(F)c1 [Compound 178]
unit: µM
CDMF75 IC15: 0.8

a: Cc1cc(N2CC3(C2)C(=O)N(C(C)C)CC(=O)N3Cc2ccc(Cl)cc2)ccn1 [Compound 10]
b: N#Cc1ccc(N2CC(=O)N(Cc3ccc(C(F)(F)F)cc3)C3(CN(C(=O)C4CCC4)C3)C2=O)c(F)c1 [Compound 180]
c: CCOC(=O)C1CC2(C1)C(=O)N(c1ncc(Cl)cc1F)CC(=O)N2Cc1ccc(C(F)(F)F)cc1 (single isomer, unassigned) [Compound 859B]
d: Cc1cc(N2CC3(C2)C(=O)N(C(C)C)CC(=O)N3Cc2ccc(C(F)(F)F)cc2)ccn1 [Compound 31]
Ask | Sort (4 molecules) by CDMF75 IC15: min first. Sort the labels as requested; that list is your answer.
Reply | c, b, d, a
